Data origin: PubChem BioAssay (EPA / NIEHS)

# method: ATG_TCF_b_cat_CIS: Attagene CIS-FACTORIAL HepG2 Assay for human T-Cell-Factor with beta-catenin (TCF/b-cat) (AID 2282965)
# condition.set: HepG2 TCF/beta-catenin cis-reporter transcription, actives raise or lower the signal
Activity calls are given as the source filed them. How the source made its calls: active means hit-call score of the fitted dose curve at least 0.9, where 1 is the maximum; inactive means score below 0.9.
I would appreciate it if you answered using one of these outcomes: active, inactive

Hey, what did the test say about CCC(C)N (centres undefined) ?
inactive

Also need Oc1c(Cl)cc(Cl)c(Cl)c1Cl , thanks.
inactive

How about this compound: Cc1ccc(C)c(OCCCC(C)(C)C(=O)O)c1
inactive

Next: [Cl][Sc]([Cl])[Cl]
inactive

Next entry: O=C(Nc1ccccc1)c1cc(Cl)ccc1O
inactive

Entry CCCCCCCCCCCC(C)=O please
active

Also need c1ccc(Nc2cccc3ccccc23)cc1 , thanks.
active

Try the compound CC(=O)CCC=C(C)C
inactive

What do you have for O=C(O)CCCC(=O)O ?
inactive

Param item: CCCCCCCCCC[N+](C)(CCCCCCCCCC)CCC[Si](OC)(OC)OC
inactive

How about this compound: CC1=CCC(C(C)C)C=C1 (centres undefined)
inactive

And then CC(=O)c1ccccc1O , what is it?
inactive

Proceed to CC(C)OC(=O)c1ccccc1
inactive

Param item: C[Si](C)(C)N[Si](C)(C)C
inactive

###

# target.or.system: human Thyroid Receptor alpha (THRa1), THRA (gene 7067) (UniProt P10827)
# Sequence (P10827 whole entry, looked up): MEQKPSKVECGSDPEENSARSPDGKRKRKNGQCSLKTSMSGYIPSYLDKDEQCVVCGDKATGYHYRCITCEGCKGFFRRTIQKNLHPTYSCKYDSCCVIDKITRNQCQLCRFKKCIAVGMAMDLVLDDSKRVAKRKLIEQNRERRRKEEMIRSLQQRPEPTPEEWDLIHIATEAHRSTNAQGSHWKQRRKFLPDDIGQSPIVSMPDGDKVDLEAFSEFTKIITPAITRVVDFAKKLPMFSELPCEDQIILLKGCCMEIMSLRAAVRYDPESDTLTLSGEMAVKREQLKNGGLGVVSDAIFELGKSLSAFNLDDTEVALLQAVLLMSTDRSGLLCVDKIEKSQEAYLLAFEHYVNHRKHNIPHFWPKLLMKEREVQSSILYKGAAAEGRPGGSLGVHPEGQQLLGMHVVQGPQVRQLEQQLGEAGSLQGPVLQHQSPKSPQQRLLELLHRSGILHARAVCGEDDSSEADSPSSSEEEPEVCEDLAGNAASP
# method: ATG_THRa1_TRANS: Attagene TRANS-FACTORIAL HepG2 Assay for human Thyroid Receptor alpha (THRa1) (AID 2283014)
Records with an inconclusive call do not appear. Activity calls are given as the source filed them. Rule for the calls: active = hit-call score of the fitted dose curve at least 0.9, where 1 is the maximum; inconclusive = response in the unintended direction; inactive = score below 0.9.
Select the matching outcome among active, inactive

Which outcome did this test record for the compound CCNc1nc(NC(C)(C)C)nc(OC)n1 ?
inactive

Input c1ccc(-c2nc3ccccc3[nH]2)cc1
inactive

Same question, CCN1CCCC1=O this time
inactive

How about C=C[Si](OCCOC)(OCCOC)OCCOC ?
inactive

Would you mind doing CC(=O)OCC=C(C)C as well?
inactive

And then CC=CC(=O)OCC(C)C , what is it?
inactive

Thanks! And CO[Si](CCCS)(OC)OC ?
inactive

Subsequent entry: CC(CCC(=O)O)(c1ccc(O)cc1)c1ccc(O)cc1
inactive

Entry CC(Cl)COP(=O)(OCC(C)Cl)OCC(C)Cl (stereo not given) please
inactive

Another: CC(c1cc(C(C)(C)C)cc(C(C)(C)C)c1O)c1cc(C(C)(C)C)cc(C(C)(C)C)c1O
inactive

Ok, now C=CC(=O)O[C@H]1C[C@@H]2CC[C@@]1(C)C2(C)C
inactive

What about C=CCNCC=C ?
inactive

Also, CCc1cccc(C)c1N(C(=O)CS(=O)(=O)O)C(C)COC (stereo not given) please.
inactive

Now give it for C=C(C)C(=O)OCCCCCCCCCCCC too.
inactive

For CC(CC=O)CC(C)(C)C (stereo not given) then?
inactive

Can you handle CC(=O)OC1CCCCC1C(C)(C)C (stereo not given) next?
inactive

How about c1ccc2sc(SSN3CCOCC3)nc2c1 ?
inactive

Similarly, Nc1ncnc2nc[nH]c12 ?
inactive

Entry CCCC(CC)c1ccccc1 (stereo not given) please
inactive

Next: CCCCNC(=S)NCCCC
inactive

Try this compound next: O=c1c(O)c(-c2ccc(O)cc2O)oc2cc(O)cc(O)c12
inactive

Moving on to CC=C(C)C=CC=C(C)C
inactive

Okay, and CCCCCCOC(=O)CCCCC(=O)OCCCCCC ?
inactive

Next compound: Oc1ccccc1Cc1ccccc1O
inactive

How about Oc1ccc(/C=C/c2cc(O)cc(O)c2)cc1 ?
inactive

Also, CC(C)(CO)COC(=O)C(C)(C)CO please.
inactive

Then this compound: CCOC(=O)[C@H](O)[C@@H](O)C(=O)OCC
inactive

Here is the next compound: CCCCCCCCCCCCCC(=O)OC(C)C
inactive

Repeat for the following compound: CC(=O)OCCc1ccccc1
inactive

C=C[C@@]1(C)CC(=O)[C@]2(O)[C@@]3(C)[C@@H](O)CCC(C)(C)[C@@H]3[C@H](O)[C@H](OC(C)=O)[C@@]2(C)O1 ?
active

C=CC(=O)OCCCCCCOC(=O)C=C , same question.
inactive

Continue with COc1ccc(C(=O)/C(Br)=C\C(=O)O)cc1
inactive

Again, but for C=CC(=O)OCC(C)OCC(C)OCC(C)OC(=O)C=C (stereo not given)
inactive

Follow-up entry: Oc1c(Cl)cc(Cl)c(Cl)c1Cl
inactive

Can you check C=CC(=O)OCCCCCCCCCC next?
inactive

Same lookup for CCC[Si](OC)(OC)OC , please.
inactive

Lookup CC1=CP(=O)(c2ccccc2)CC1 (stereo not given)
inactive

Another: CC(C)(O)Cc1ccccc1
inactive

Try this compound too: O=C(C=Cc1ccccc1)OCCc1ccccc1
inactive

For C1CCSC1 then?
inactive

// repeat for COC(Cc1ccccc1)OC and report
inactive

Follow-up entry: Cc1cc(C)c(C=O)c(C)c1
inactive

Same question, CCCCC(CC)COC(=O)/C=C/c1ccc(OC)cc1 (stereo not given) this time
inactive

Let us now turn to Nc1nc(N)nc(-c2ccccc2)n1
inactive

Quick one: CC1(C)[C@@H]2CC[C@@]1(C)C(=O)C2
inactive

Same thing, different compound: CCCCCCC=O
inactive

Check C[Si]1(C)O[Si](C)(C)O[Si](C)(C)O[Si](C)(C)O[Si](C)(C)O1 too.
inactive

Could you do the same for C[Si](C)(C)N[Si](C)(C)C , please?
inactive

Same lookup for CCC(C)(O)CCCC(C)C (stereo not given) , please.
inactive

Another compound: COCC(=O)O
inactive

Further, for CCCCCCCCCC[N+](C)(CCCCCCCCCC)CCC[Si](OC)(OC)OC ?
inactive

Would you kindly repeat that for C/C=C/C=C/CCCCCCCO ?
inactive

Input CC(=O)/C=C/C1C(C)=CCCC1(C)C (stereo not given)
inactive

What would you report for CCCCCCCCCC(C)=O ?
inactive

Try c1ccc(Nc2cccc3ccccc23)cc1 next.
inactive

Now this one: Clc1cccnc1
inactive

And for C=CCOC(=O)c1ccc(C(=O)OCC=C)c(C(=O)OCC=C)c1 ?
inactive

Same again, this time with CC(C)=NNC(N)=S
inactive

Entry O=C(O)c1cc(O)c2ccccc2c1O please
inactive

Let us now turn to CCCC1CCCC(=O)O1 (stereo not given)
inactive

###

# target.or.system: Myc proto-oncogene protein (Homo sapiens)
# method: ATG_Myc_CIS: Attagene CIS-FACTORIAL HepG2 Assay for human Myelocytomatosis (Myc) Proto-Oncogene Transcription Factor (AID 2282990)
# condition.set: HepG2, Attagene cis-reporter transcription factor activity; actives raise or lower the signal
Active and inactive are the calls of the source. Rule for the calls: active = hit-call score of the fitted dose curve at least 0.9, where 1 is the maximum; inactive = score below 0.9.
Select the correct class. Options are true (1) for active, false (0) for inactive and nothing else.

# fetch the recorded call for COc1ccc(-c2coc3cc(O)cc(O)c3c2=O)cc1 here
false (0)

Same question for N#Cc1ccc(C2CCCc3cncn32)cc1 (stereo unspecified) please.
false (0)

Now the compound O=C(Nc1ccccc1)c1cc(Cl)ccc1O
false (0)

Next entry: CC(C)C(=O)OCCOc1ccccc1
false (0)

# repeat for CCCCCCO
false (0)

Also, CCN1CCCC1=O please.
false (0)

Do the same for COc1ccc(C(=O)c2ccccc2)c(O)c1 please
false (0)

# repeat for CC1=C(O)C(=O)C(C)O1 (stereo unspecified)
false (0)

Cool, now Cc1ccc(S(=O)(=O)N=C=O)cc1
false (0)

Also check c1ccc2cnccc2c1
false (0)

Try CC(CC(C)C)=NO next.
false (0)

Try CCCCCCCC(=O)OCC next.
false (0)

And the next one, CC(C)=CCl ?
false (0)

Now consider Oc1c(Cl)cc(Cl)c(Cl)c1Cl .
false (0)

Note, next up: CCCCCOC(=O)CCCCC
false (0)

Try NNS(=O)(=O)c1ccc(Oc2ccc(S(=O)(=O)NN)cc2)cc1 next.
false (0)

What do you have for Nc1ccnc(=O)[nH]1 ?
false (0)

Would you kindly repeat that for CCOC(=O)c1ccc(C)cc1 ?
false (0)

Next entry: O=C(O)/C=C/c1ccccc1
false (0)

Next entry: CCc1cccc(CC)c1
false (0)

Entry O=C1CCCCC1C1CCCCC1 (stereo unspecified) please
false (0)

Entry to check: CC(=O)OC(C)c1ccccc1 (stereo unspecified)
false (0)

Try this compound too: COC(=O)c1ccccc1C
false (0)

Would you mind doing C=CC(=O)O[C@H]1C[C@@H]2CC[C@@]1(C)C2(C)C as well?
true (1)

Now give it for C=C[Si](OCCOC)(OCCOC)OCCOC too.
false (0)

Input CCCc1ccc(O)c(OC)c1
false (0)

Ok, now COC(C=C(C)CCC=C(C)C)OC
false (0)

Again, but for CC(C)c1cccc(C(C)C)c1N
false (0)

Same lookup for N#CC1(N)CCCCC1 , please.
false (0)

Then C/C=C/C=C/CCCCCCCO ?
false (0)

Now give it for CCC(=O)C1CC(C(C)C)CC=C1C (stereo unspecified) too.
false (0)

One more compound: CCCCNC(=S)NCCCC
false (0)

CCCCNS(=O)(=O)c1ccccc1 ?
false (0)

Cool, now CC(C)c1cc(C(C)C)cc(C(C)C)c1
true (1)

Note, next up: CCCC1CCCC(=O)O1 (stereo unspecified)
false (0)

Next record, please: CN(C)c1ccc2nc3ccc(=[N+](C)C)cc-3sc2c1
false (0)

Next record, please: COC(=O)c1ccc(C(=O)OC)c(C(=O)OC)c1
false (0)

Try CC(C)OC(=O)c1ccccc1 next.
false (0)

For OCCCc1ccccc1 then?
false (0)

Now try Nc1ncnc2nc[nH]c12 .
false (0)

Also need NC(=O)Nc1ccccc1 , thanks.
false (0)

Try the compound CC(=O)OCC=C(C)C
false (0)

Try COC(Cc1ccccc1)OC next.
false (0)

Subsequent entry: CCCCCC(=O)OCC
false (0)

Entry to check: CC1(C)CC(O)CC(C)(C)N1[O]
false (0)

CCCCCCC=O ?
false (0)

# repeat for CC(=O)/C=C/C1C(C)=CCCC1(C)C (stereo unspecified)
false (0)

Try CCC(C)(O)CCCC(C)C (stereo unspecified) next.
false (0)

One more compound: CCC(C)c1ccccc1 (stereo unspecified)
false (0)

Can you check CCCSSCCC next?
false (0)

Follow-up entry: O=C(O)c1cc(O)c2ccccc2c1O
true (1)

Ok, now c1ccc2c(c1)[nH]c1ccccc12
false (0)

Also, O=C(Oc1ccccc1)c1ccccc1C(=O)Oc1ccccc1 please.
false (0)

Then what about the compound CC(C)CC(=O)OCc1ccccc1 ?
false (0)

Would you kindly repeat that for CC(C)COC(=O)CC(C(=O)OCC(C)C)S(=O)(=O)O (stereo unspecified) ?
false (0)

What do you get for C=CCCCCCCCCOC(C)=O ?
false (0)

Again, but for C[N+](C)(C)CCCNS(=O)(=O)C(F)(F)C(F)(F)C(F)(F)C(F)(F)C(F)(F)C(F)(F)C(F)(F)C(F)(F)F
false (0)

Next up: CC(C)c1ccc2ncccc2c1
false (0)

Also, CCCC=C(C=O)CC please.
false (0)

Similarly, CC(=O)CCC1=C(C)CCCC1(C)C ?
false (0)

Same lookup for CC1=CC=C(C(C)C)CC1 , please.
false (0)

Also CCOC(=O)c1ccccc1C ?
false (0)

How about C=Cc1cccc(C)c1 ?
false (0)

Now the same for C=CC(=O)NC(C)(C)C
false (0)

Now try CCCCC(CC)COS(=O)(=O)O (stereo unspecified) .
false (0)

Now consider CCCC(CC)c1ccccc1 (stereo unspecified) .
false (0)
